# targetEntity: human TLR8 (Homo sapiens (Human), UniProt Q9NR97)
# Sequence (Q9NR97 27-1041): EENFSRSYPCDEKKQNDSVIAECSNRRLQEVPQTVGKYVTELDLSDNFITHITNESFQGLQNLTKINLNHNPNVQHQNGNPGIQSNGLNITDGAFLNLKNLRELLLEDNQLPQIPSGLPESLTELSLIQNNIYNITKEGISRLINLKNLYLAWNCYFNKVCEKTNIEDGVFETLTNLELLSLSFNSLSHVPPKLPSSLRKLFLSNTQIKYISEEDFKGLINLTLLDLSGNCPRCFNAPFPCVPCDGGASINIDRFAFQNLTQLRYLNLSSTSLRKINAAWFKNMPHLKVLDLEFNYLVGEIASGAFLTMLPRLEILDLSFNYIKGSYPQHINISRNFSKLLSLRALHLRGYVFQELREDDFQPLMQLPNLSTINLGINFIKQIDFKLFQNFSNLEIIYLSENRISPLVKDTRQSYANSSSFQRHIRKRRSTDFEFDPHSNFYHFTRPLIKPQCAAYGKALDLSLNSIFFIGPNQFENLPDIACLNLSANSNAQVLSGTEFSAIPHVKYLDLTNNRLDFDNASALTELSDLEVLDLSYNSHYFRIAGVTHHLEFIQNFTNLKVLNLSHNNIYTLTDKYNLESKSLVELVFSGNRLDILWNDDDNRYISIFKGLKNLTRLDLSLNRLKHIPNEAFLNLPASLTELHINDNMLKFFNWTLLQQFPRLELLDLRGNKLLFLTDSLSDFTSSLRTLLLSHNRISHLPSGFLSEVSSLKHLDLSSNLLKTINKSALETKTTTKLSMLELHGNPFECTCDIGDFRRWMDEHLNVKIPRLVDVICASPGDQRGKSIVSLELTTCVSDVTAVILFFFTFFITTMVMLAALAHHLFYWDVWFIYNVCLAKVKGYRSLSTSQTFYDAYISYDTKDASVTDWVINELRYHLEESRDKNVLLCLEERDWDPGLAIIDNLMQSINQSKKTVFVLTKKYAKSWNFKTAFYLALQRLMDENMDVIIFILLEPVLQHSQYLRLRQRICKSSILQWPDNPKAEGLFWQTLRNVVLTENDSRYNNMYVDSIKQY
# assayComment: TLR8 inhibition reporter assay (HEK-Blue SEAP);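 also: SEAP driven by IFN-β minimal promoter carrying NF-κB and AP-1 sites, compounds dosed 0.05 nM to 50 µM for 22 h, inhibition scaled between agonist-plus-DMSO and reference-inhibitor wells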
# setupConditions: read-out: TLR8 IC50; HEK-Blue cells overexpressing human TLR8, SEAP reporter, R848 15.9 μM
measuredMetric: IC50 (nM)

Below, 5 compounds whose answers are already recorded.
1. Cc1c(-c2[nH]c3cc(F)c(C4CCC(N)CC4)nc3c2C(C)C)cn2ncnc2c1C (stereo not shown) [Example 507]
2.4
2. Cc1c(-c2[nH]c3ccc(C4CCN(C(=O)CN(C)C)CC4)nc3c2C(C)C)cn2ncnc2c1C
5.5
3. CC(=O)N(C)C1CCC(c2ccc3[nH]c(-c4cn5ncnc5c(C)c4C)c(C(C)C)c3n2)CC1 (stereo not shown) [Example 439]
32
4. COc1cc(-c2[nH]c3ccc(OCC4CCN(CC(=O)N(C)C)CC4)nc3c2C(C)C)cn2ncnc12
6.8
5. Cc1cc(-c2[nH]c3ccc(C4CCN(C(=O)CN(C)C)CC4)nc3c2C(C)C)cn2ncnc12
15

[a] Cc1c(-c2[nH]c3ccc(C4CCC(NCC(C)(C)S(C)(=O)=O)CC4)nc3c2C(C)C)cn2ncnc2c1C (stereo not shown) [Example 454]
[b] Cc1c(-c2[nH]c3ccc(C4CCN(CC(C)C)CC4)nc3c2C(C)C)cn(C)c(=O)c1Cl
[c] Cc1c(-c2[nH]c3ccc(C4CN(C(C)C)C4)nc3c2C(C)C)cn2ncnc2c1C
[d] COc1cc(-c2[nH]c3cc(F)c(C4CCN(C5COC5)CC4)nc3c2C(C)C)cn2ncnc12
[e] Cc1c(-c2[nH]c3ccc(C4CC(NC5CCOCC5)C4)nc3c2C(C)C)cn2ncnc2c1C (stereo not shown)
INPUT: Sort the 5 compounds by IC50; largest first, smallest last. A ranking is expressed here by listing the labels in the requested order.
OUTPUT: d, c, b, e, a

[P] CCCN1CCC(Oc2ccc3[nH]c(-c4cc(OC)c5ncnn5c4)c(C(C)C)c3n2)CC1
[Q] CNC(=O)CN1CCC(c2ccc3[nH]c(-c4cc(C)c5ncnn5c4)c(C(C)C)c3n2)CC1
INPUT: Look at P and Q . Which one has the lower recorded IC50 number? Lab log: write the label of the selected item as the result.
OUTPUT: P
(P: 2.6 nM, Q: 4.4 nM)

[I] Cc1c(-c2[nH]c3ccc(C4CCC(N5CCN(C)C(=O)C5)CC4)nc3c2C(C)C)cn2ncnc2c1C (stereo not shown) [Example 442]
[II] CNC(=O)CNC1CCC(c2ccc3[nH]c(-c4cc(OC)c5ncnn5c4)c(C(C)C)c3n2)C1 (stereo not shown) [Example 725]
INPUT: Hi, I'm comparing I with II and wondering which one has the bigger number for IC50. Any idea? Lab log: write the label of the selected item as the result.
OUTPUT: I

###

# targetEntity: human TLR9 (Homo sapiens (Human), UniProt Q9NR96)
# Sequence (Q9NR96 26-1032): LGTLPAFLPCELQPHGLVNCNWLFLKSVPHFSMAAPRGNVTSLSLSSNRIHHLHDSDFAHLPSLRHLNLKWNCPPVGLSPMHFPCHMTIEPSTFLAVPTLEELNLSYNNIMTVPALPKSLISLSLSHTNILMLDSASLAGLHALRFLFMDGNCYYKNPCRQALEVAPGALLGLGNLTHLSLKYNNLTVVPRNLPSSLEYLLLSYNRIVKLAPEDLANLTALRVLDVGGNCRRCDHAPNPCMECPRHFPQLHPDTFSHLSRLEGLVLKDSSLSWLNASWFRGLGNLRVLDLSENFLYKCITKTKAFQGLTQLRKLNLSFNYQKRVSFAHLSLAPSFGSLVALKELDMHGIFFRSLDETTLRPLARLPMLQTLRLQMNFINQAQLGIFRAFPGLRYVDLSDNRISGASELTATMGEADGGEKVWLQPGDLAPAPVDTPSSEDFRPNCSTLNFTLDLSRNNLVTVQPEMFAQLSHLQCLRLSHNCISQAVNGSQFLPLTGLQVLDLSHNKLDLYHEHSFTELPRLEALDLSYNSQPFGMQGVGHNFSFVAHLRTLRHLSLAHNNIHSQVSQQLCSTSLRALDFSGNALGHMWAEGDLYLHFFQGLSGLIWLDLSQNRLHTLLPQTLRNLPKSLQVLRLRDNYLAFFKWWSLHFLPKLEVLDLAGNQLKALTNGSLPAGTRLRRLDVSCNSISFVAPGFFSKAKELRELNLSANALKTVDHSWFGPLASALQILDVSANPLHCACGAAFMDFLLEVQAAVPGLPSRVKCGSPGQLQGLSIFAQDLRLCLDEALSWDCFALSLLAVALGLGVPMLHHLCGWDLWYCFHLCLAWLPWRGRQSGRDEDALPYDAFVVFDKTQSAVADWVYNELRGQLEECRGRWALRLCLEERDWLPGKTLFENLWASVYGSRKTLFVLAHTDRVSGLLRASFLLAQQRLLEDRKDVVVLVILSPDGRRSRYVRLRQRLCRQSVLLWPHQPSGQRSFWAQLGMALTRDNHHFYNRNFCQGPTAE
# assayComment: TLR9 inhibition reporter assay (HEK-Blue SEAP)
# setupConditions: read-out: TLR9 IC50; HEK-Blue cells overexpressing human TLR9, ODN2006 5 nM stimulation, SEAP reporter
measuredMetric: IC50 (µM)

Below, 10 molecules whose answers are already recorded.
1) Cc1c(-c2[nH]c3ccc(N4CC5(CCN(CC(=O)N(C)C)CC5)C4)nc3c2C(C)C)cn2ncnc2c1C [Example 44]
3.37
2) Cc1c(-c2[nH]c3ccc(C4CCC(N(C)C5CC5)CC4)nc3c2C(C)C)cn2ncnc2c1C (stereo not drawn) [Example 380]
1.88
3) COc1cc(-c2[nH]c3ccc(N4CCN(C5CCOCC5)CC4)nc3c2C(C)C)cn2ncnc12 [Example 104]
4.16
4) Cc1c(-c2[nH]c3ccc(C4CCC(N(C)C)CC4)nc3c2C(C)C)cn2ncnc2c1C (stereo not drawn) [Example 353]
0.94
5) Cc1c(-c2[nH]c3ccc(C4CCC(N5CCC5)CC4)nc3c2C(C)C)cn2ncnc2c1C (stereo not drawn) [Example 386]
1.44
6) COc1cc(-c2[nH]c3ccc(N4CCN(C5CCN(C(C)=O)CC5)CC4)nc3c2C(C)C)cn2ncnc12 [Example 121]
6.35
7) COc1cc(-c2[nH]c3ccc(C4CCC(NCC(=O)N(C)C)CC4)nc3c2C(C)C)cn2ncnc12 (stereo not drawn) [Example 181]
0.561
8) CNC1CCC(c2ccc3[nH]c(-c4cn(C)c5ncncc45)c(C(C)C)c3n2)CC1 (stereo not drawn) [Example 301]
4.09
9) CC(C)c1c(-c2cc(CO)c3ncnn3c2)[nH]c2ccc(C3CCC(NCc4c[nH]nn4)CC3)nc12 (stereo not drawn) [Example 221]
0.435
10) COc1cc(-c2[nH]c3cc(F)c(C4CCC(N5CC6(COC6)C5)CC4)nc3c2C(C)C)cn2ncnc12 (stereo not drawn) [Example 344]
2.79

[P] COCc1cc(-c2[nH]c3ccc(C4CCC(NC5COC5)CC4)nc3c2C(C)C)cn2ncnc12 (stereo not drawn) [Example 229]
[Q] COc1cc(-c2[nH]c3ccc(C4CCC(N5CCCC5)CC4)nc3c2C(C)C)cn2ncnc12 (stereo not drawn) [Example 199]
[R] Cc1c(-c2[nH]c3ccc(N4CCC(NC5CCC5)CC4)nc3c2C(C)C)cn2ncnc2c1C [Example 57]
[S] CC(C)c1c(-c2cn(CCS(C)(=O)=O)c3ncccc23)[nH]c2ccc(C3CCC(NCC4(S(C)(=O)=O)CC4)CC3)nc12 (stereo not drawn) [Example 262]
[T] COc1cc(-c2[nH]c3ccc(N4CCN(CCCS(C)(=O)=O)CC4)nc3c2C(C)C)cn2ncnc12 [Example 132]
INPUT: In this exercise, place the 5 molecules in ascending sequence of their recorded IC50. A ranking is expressed here by listing the labels in the requested order.
OUTPUT: S, Q, P, R, T

[P] COc1cc(-c2[nH]c3ccc(C4CCC(N5CC6(COC6)C5)CC4)nc3c2C(C)C)cn2ncnc12 (stereo not drawn) [Example 244]
[Q] CC(C)c1c(-c2cn(C)c3ncccc23)[nH]c2ccc(C3CCC(NC4CC4)CC3)nc12 (stereo not drawn) [Example 243]
INPUT: Hi, I'm comparing P with Q and wondering which one has the bigger number for IC50. Any idea? Lab log: write the label of the selected item as the result.
OUTPUT: P

[a] CC(C)c1c(-c2cn(C)c3ncccc23)[nH]c2ccc(C3CCC(NCCS(C)(=O)=O)CC3)nc12 (stereo not drawn) [Example 251]
[b] COc1cc(-c2[nH]c3ccc(C4CCC(N(C)C)CC4)nc3c2C(C)C)cn2ncnc12 (stereo not drawn) [Example 187]
INPUT: Look at a and b . Which one has the lower recorded IC50 number? Lab log: write the label of the selected item as the result.
OUTPUT: a

[A] CC(C)c1c(-c2cc(CO)c3ncnn3c2)[nH]c2ccc(C3CCC(NCCC(F)(F)F)CC3)nc12 (stereo not drawn) [Example 307]
[B] Cc1c(-c2[nH]c3ccc(C4CCC(NC(C)C)CC4)nc3c2C(C)C)cn2ncnc2c1C (stereo not drawn) [Example 358]
[C] CC(C)c1c(-c2cn(C)c3ncncc23)[nH]c2ccc(N3CCN(C4CCOCC4)CC3)nc12 [Example 127]
[D] COc1cc(-c2[nH]c3ccc(C4CCC(N5CCC[C@H]5CO)CC4)nc3c2C(C)C)cn2ncnc12 (stereo partly drawn) [Example 173]
INPUT: Sort the 4 molecules by IC50; largest first, smallest last. A ranking is expressed here by listing the labels in the requested order.
OUTPUT: C, A, B, D
(C: 5.9 µM, A: 2.98 µM, B: 1.32 µM, D: 0.578 µM)
